- assay target: T1, mouse PCSK9 (mouse, UniProt Q80W65 35-694, limits assumed)
- T1 construct: also called mPCSK9; PCSK9 mouse
- T1 sequence (Q80W65 35-694 limits assumed): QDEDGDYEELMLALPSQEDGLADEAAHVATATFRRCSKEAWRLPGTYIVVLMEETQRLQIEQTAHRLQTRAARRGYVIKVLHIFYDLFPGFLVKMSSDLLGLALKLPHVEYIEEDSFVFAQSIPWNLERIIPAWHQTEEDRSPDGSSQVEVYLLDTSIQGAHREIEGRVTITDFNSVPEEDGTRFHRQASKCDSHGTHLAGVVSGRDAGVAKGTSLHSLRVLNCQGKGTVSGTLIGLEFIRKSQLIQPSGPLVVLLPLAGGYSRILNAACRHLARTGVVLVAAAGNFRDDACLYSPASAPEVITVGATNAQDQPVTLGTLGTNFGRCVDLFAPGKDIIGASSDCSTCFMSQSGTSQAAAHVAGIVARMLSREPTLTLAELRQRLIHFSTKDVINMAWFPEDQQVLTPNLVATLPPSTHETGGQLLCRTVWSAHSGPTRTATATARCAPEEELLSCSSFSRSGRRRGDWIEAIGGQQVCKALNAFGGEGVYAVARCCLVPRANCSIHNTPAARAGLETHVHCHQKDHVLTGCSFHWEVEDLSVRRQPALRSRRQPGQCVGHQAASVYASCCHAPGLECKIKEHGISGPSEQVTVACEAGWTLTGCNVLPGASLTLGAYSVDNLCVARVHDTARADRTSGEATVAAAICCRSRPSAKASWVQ
- protocol notes: ProteOn SPR, captured antibody, pH 7.6;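 also: antibodies captured via anti-human Fc on a GLC sensor chip, PCSK9 binding sensorgrams fitted to a 1:1 Langmuir model giving on and off rates, with KD derived from them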
parameter measured: koff (s⁻¹)
Reply numerically in s⁻¹, unit not repeated.

Prompt: Name the recorded koff for CL-274698 (antibody, V domains shown, Human antibody with a kappa light chain, derived from a PCSK9 knockout mouse) VH: QVQLQESGPGLVKPSGTLSLTCAVSGGSISSSKWWSWVRQPPGKGLEWIGETHYSGSTNYNPSLKSRVTISVDKSKNQFSLKLRSVTAADTAVYYCARVGATENFWGQGTLVTVSS VL: EIVLTQSPATLSLSPGERATLSCRASQSVFRYLAWYQQKPGQAPRLLIYDASTRATDIPARFSGSGSGTDFTLTISSLEPEDFAVYYCQQRSNWPPTFGQGTKVEIK .
Completion: 0.000257
